Target: APOL1 G1 Protein (Homo sapiens, UniProt O14791, I384M/S342G)
Sequence (O14791 28-398 S342G/I384M): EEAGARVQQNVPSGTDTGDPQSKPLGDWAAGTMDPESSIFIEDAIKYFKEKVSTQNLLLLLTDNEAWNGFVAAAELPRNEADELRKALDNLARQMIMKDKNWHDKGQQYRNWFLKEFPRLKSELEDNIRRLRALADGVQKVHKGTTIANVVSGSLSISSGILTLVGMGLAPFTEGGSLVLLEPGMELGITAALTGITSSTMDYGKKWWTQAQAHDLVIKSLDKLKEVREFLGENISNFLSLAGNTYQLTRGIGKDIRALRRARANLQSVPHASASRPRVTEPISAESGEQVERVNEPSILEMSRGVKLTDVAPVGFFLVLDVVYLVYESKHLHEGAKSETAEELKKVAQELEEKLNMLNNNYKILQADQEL
Experiment: Trypanosoma brucei brucei lysis assay using APOL1 recombinant protein (AlamarBlue viability)
Details: Trypanosoma brucei brucei lysis with recombinant APOL1 protein

- MOLECULE: "NC[C@H]1C[C@@H](c2c(-c3ccc(F)cc3)[nH]c3c(F)cc(F)cc32)C1"
  IC50: "< 250 nM"
- MOLECULE: "CC(=O)OC1CC(c2c(-c3ccc(F)cc3)[nH]c3c(F)cc(F)cc23)C1 (mixture of isomers)"
  IC50: "< 250 nM"
- MOLECULE: "NC1CCC(c2c(-c3ccc(F)cc3)[nH]c3c(F)cc(F)cc23)CC1 (stereo not shown)"
  IC50: "< 250 nM"
- MOLECULE: "N#Cc1ccc(-c2[nH]c3c(F)cc(F)cc3c2C2CC(CN)C2)cc1 (stereo not shown)"
  IC50: "< 250 nM"
- MOLECULE: "CC(=O)N1CCC(Cc2c(-c3ccc(F)cc3)[nH]c3c(F)cc(F)cc23)C1 (stereo not shown)"
  IC50: "250 to 1000 nM"
- MOLECULE: "Cc1ccc(-c2[nH]c3c(F)cc(F)cc3c2C2CC(N)C2)cc1 (mixture of isomers)"
  IC50: "< 250 nM"
- MOLECULE: "COc1ccc(-c2[nH]c3c(F)cc(F)cc3c2C2CC(CN)C2)cc1 (stereo not shown)"
  IC50: "< 250 nM"
- MOLECULE: "CC1(CN)CC(c2c(-c3ccc(F)cc3)[nH]c3c(F)cc(F)cc23)C1 (stereo not shown)"
  IC50: "< 250 nM"
- MOLECULE: "O[C@H]1C[C@H](c2c(-c3ccc(F)cc3)[nH]c3c(F)cc(F)cc32)C1"
  IC50: "< 250 nM"
- MOLECULE: "COCCNCC1CC(c2c(-c3ccc(F)cc3)[nH]c3c(F)cc(F)cc23)C1 (stereo not shown)"
  IC50: "< 250 nM"
- MOLECULE: "NCC1CC(c2c(-c3ccc(F)cc3)[nH]c3c(F)cc(F)cc23)C1 (mixture of isomers)"
  IC50: "< 250 nM"
- MOLECULE: "NCC1(O)CC(c2c(-c3ccc(F)cc3)[nH]c3c(F)cc(F)cc23)C1 (stereo not shown)"
  IC50: "< 250 nM"
- MOLECULE: "OCC1CC(c2c(-c3ccc(F)cc3)[nH]c3c(F)cc(F)cc23)C1 (stereo not shown)"
  IC50: "< 250 nM"
- MOLECULE: "O=C(C1CCO1)N1CCC(Cc2c(-c3ccc(F)cc3)[nH]c3c(F)cc(F)cc23)C1 (stereo not shown)"
  IC50: "250 to 1000 nM"
- MOLECULE: "O=C(CO)NCC1CC(c2c(-c3ccc(F)cc3)[nH]c3c(F)cc(F)cc23)C1 (stereo not shown)"
  IC50: "250 to 1000 nM"
- MOLECULE: "CC(=O)NC1CC(c2c(-c3ccc(F)cc3)[nH]c3c(F)cc(F)cc23)C1 (stereo not shown)"
  IC50: "250 to 1000 nM"
- MOLECULE: "COc1ccc(-c2[nH]c3c(F)cc(F)cc3c2C2CC(N)C2)cc1 (mixture of isomers)"
  IC50: "< 250 nM"
- MOLECULE: "NC1CC(c2c(-c3ccc(F)cc3)[nH]c3c(F)cccc23)C1 (stereo not shown)"
  IC50: "< 250 nM"
- MOLECULE: "NCC1CC(c2c(-c3ccc(OC(F)(F)F)cc3)[nH]c3c(F)cc(F)cc23)C1 (stereo not shown)"
  IC50: "< 250 nM"
- MOLECULE: "Cc1cccc(-c2[nH]c3c(F)cc(F)cc3c2C2CC(CN)C2)c1 (stereo not shown)"
  IC50: "< 250 nM"
- MOLECULE: "O=C(CO)NC1CC(c2c(-c3ccc(F)cc3)[nH]c3c(F)cc(F)cc23)C1 (stereo not shown)"
  IC50: "250 to 1000 nM"
- MOLECULE: "CC(C)(O)CC(=O)NC1CC(c2c(-c3ccc(F)cc3)[nH]c3c(F)cc(F)cc23)C1 (stereo not shown)"
  IC50: "250 to 1000 nM"
- MOLECULE: "COCC(=O)NC1CC(c2c(-c3ccc(F)cc3)[nH]c3c(F)cc(F)cc23)C1 (stereo not shown)"
  IC50: "250 to 1000 nM"
- MOLECULE: "NCC1CC(c2c(-c3ccc(Cl)cc3)[nH]c3c(F)cc(F)cc23)C1 (mixture of isomers)"
  IC50: "< 250 nM"
- MOLECULE: "OCCNCC1CC(c2c(-c3ccc(F)cc3)[nH]c3c(F)cc(F)cc23)C1 (stereo not shown)"
  IC50: "< 250 nM"
- MOLECULE: "NC1CC(c2c(-c3ccc(Cl)cc3)[nH]c3c(F)cc(F)cc23)C1 (mixture of isomers)"
  IC50: "< 250 nM"
- MOLECULE: "Cc1ccc(-c2[nH]c3c(F)cc(F)cc3c2C2CC(CN)C2)cc1 (stereo not shown)"
  IC50: "< 250 nM"
- MOLECULE: "N[C@H]1CC[C@H](c2c(-c3ccc(F)cc3)[nH]c3c(F)cc(F)cc32)CC1 (single isomer, unassigned)"
  IC50: "< 250 nM"
- MOLECULE: "NCC1CC(c2c(-c3ccc(OC(F)F)cc3)[nH]c3c(F)cc(F)cc23)C1 (stereo not shown)"
  IC50: "< 250 nM"
- MOLECULE: "NC[C@H]1C[C@H](c2c(-c3ccc(F)cc3)[nH]c3c(F)cc(F)cc32)C1"
  IC50: "< 250 nM"
- MOLECULE: "NC1CC2(C1)CC(c1c(-c3ccc(F)cc3)[nH]c3c(F)cc(F)cc13)C2 (stereo not shown)"
  IC50: "< 250 nM"
